# TARGET_SYSTEM: SARS-CoV-2 Spike receptor binding domain (RBD), wild type, His-tagged (SARS-CoV-2, UniProt P0DTC2)
pKd: −log10 of the molar value.
Classification field: enter label 1 for pKd values not below 7, label 0 for values below it.

{"BINDER": "128 (antibody, V domains shown) VH: QVQLVQSGAEVKKPGASVKVSCKASGYTFTHYYMHWVRQAPGQGLEWMGIINPSSSSASYSQKFQGRVTMTRDTSTSTVYMELSSLRSEDTAVYYCARDGRYGSGSYPFDYWGQGTLVTVSS VL: DIQMTQSPSSLSASVGDRVTITCRASQNISRYLNWYQQKPGKAPKLLIYDASNLETGVPSRFSGSGSGTDFTLTISSLQPEDFATYYCQQANGFPPTFGQGTKLEIK", "CLASS_ASSIGNMENT": "label 1"}
{"BINDER": "160 (antibody, V domains shown) VH: QVQLVQSGAEVKKPGASVKVSCKASGYTFTGHDMHWVRQAPGQGLEWMGIINPSGGSTSYAQKFQGRVTMTRDTSTSTVYMELSSLRSEDTAVYYCARANSLRYYYGMDVWGQGTMVTVSS VL: DIQMTQSPSSLSASVGDRVTITCRASQSVSSWLAWYQQKPGKAPKLLIYAASSLQSGVPSRFSGSGSGTDFTLTISSLQPEDFATYYCQQGYTTPYTFGQGTKLEIK", "CLASS_ASSIGNMENT": "label 1"}
{"BINDER": "158 (antibody, V domains shown) VH: QVQLVQSGAEVKKPGASVKVSCKASGYTFTGYYMHWVRQAPGQGLEWMGWINPLNGGTNFAPKFQGRVTMTRDTSTSTVYMELSSLRSEDTAVYYCARDPGGSYSNDAFDIWGQGTLVTVSS VL: DIQMTQSPSSLSASVGDRVTITCRASQSISRYLNWYQQKPGKAPKLLIYDASNLESGVPSRFSGSGSGTDFTLTISSLQPEDFATYYCQQANSFPLTFGGGTKVDIK", "CLASS_ASSIGNMENT": "label 0"}
